TESTED_SYSTEM: human PD-L1 (human) (UniProt Q9NZQ7)
Sequence (Q9NZQ7 19-290): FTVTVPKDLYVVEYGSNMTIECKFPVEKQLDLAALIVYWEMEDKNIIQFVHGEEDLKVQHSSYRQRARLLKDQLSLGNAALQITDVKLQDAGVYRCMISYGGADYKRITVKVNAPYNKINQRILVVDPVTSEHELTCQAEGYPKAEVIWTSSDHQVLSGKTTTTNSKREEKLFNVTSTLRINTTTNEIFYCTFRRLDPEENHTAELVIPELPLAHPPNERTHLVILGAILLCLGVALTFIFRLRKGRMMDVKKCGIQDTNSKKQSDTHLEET
TEST_METHOD_NOTES: flow cytometry, CHO cells stably expressing PD-L1
MEASUREMENT_TYPE: Fold change to WT CD80 (fold)
Your answer should be a plain number; it is taken to be in fold.

variant CD80 IgV-Fc H18Y/A26E/M47L/A71G (Fc fusion) VIHVTKEVKEVATLSCGYNVSVEELEQTRIYWQKEKKMVLTMMSGDLNIWPEYKNRTIFDITNNLSIVILGLRPSDEGTYECVVLKYEKDAFKREHLAEVTLSVKAD :: 357

Then this binder:
q: What does the data say about its Fold change to WT CD80? Entry: variant CD80 IgV-Fc A26E/M47L/A71G/D90G (Fc fusion) VIHVTKEVKEVATLSCGHNVSVEELEQTRIYWQKEKKMVLTMMSGDLNIWPEYKNRTIFDITNNLSIVILGLRPSDEGTYECVVLKYEKGAFKREHLAEVTLSVKAD
a: 303
